test system: mexB (PA) strain; experiment: Combinational effect with antibacterial agent against Pseudomonas aeruginosa (Test Examples 2 and 4): mexB (PA) strain with LVFX, TC or AZT at 1/4 MIC, EC99; type: cell-based; details: mexB (PA) strain; combined with AZT at 1/4 MIC; Test Example 4
quantity: EC99, combinational effect with AZT, mexB (PA)

INSERT INTO results (compound_smiles, obs_value) VALUES
  ('CCSc1ccc(O)cc1CN1CCN(C(=O)[C@H](N)C2CCN(CCc3cc(Cl)ccc3-c3cc(O)cc(F)c3)CC2)CC1', 'S (EC99≤12.5 μM)'),
  ('CCSc1cc(F)ccc1CN1CCN(C(=O)[C@H](N)C2CCN(CCc3cc(Cl)ccc3-c3cccc(F)c3)CC2)CC1', 'S (EC99≤12.5 μM)'),
  ('CCSc1cc(F)ccc1CN1CCN(C(=O)[C@H](N)C2CCN(CCc3ccc(O)cc3-c3ccccc3)CC2)CC1', 'C (100 μM<EC99)'),
  ('CCOc1cccc(F)c1CN1CCN(C(=O)[C@H](N)C2CCN(CCc3cc(Cl)ccc3-c3cccc(O)c3Cl)CC2)CC1', 'S (EC99≤12.5 μM)'),
  ('CCSc1ccc(O)cc1CN1CCN(C(=O)[C@H](N)C2CCN(CCc3cc(Cl)ccc3-c3cccc(O)c3Cl)CC2)CC1', 'S (EC99≤12.5 μM)');

Query: EC99, combinational effect with AZT, mexB (PA); subject: "CNc1cccc(-c2ccc(Cl)cc2CCN2CCC([C@@H](N)C(=O)N3CCN(Cc4ccccc4SC)CC3)CC2)c1"
A (12.5 μM<EC99≤25 μM)

Follow-up entry: "CCSc1cc(F)ccc1CN1CCN(C(=O)[C@H](N)C2CCN(CCc3cc(Cl)ccc3-c3ccccc3N)CC2)CC1"
S (EC99≤12.5 μM)

Follow-up entry: "CCSc1cc(F)ccc1CN1CCN(C(=O)[C@H](N)C2CCN(CCc3cc(Cl)ccc3-c3cccc(O)c3)CC2)CC1"
B (25 μM<EC99≤100 μM)

Follow-up entry: "CCSc1cc(F)ccc1CN1CCN(C(=O)[C@H](N)C2CCN(CCc3cc(Cl)ccc3-c3cc(O)cc(Cl)c3)CC2)CC1"
S (EC99≤12.5 μM)

Follow-up entry: "CCSc1cc(F)ccc1CN1CCN(C(=O)[C@H](N)C2CCN(CCc3cc(Cl)ccc3-c3ccccc3O)CC2)CC1"
S (EC99≤12.5 μM)

Follow-up entry: "CCOc1cccc(F)c1CN1CCN(C(=O)[C@H](N)C2CCN(CCc3cc(Cl)ccc3-c3ccnn3C)CC2)CC1"
C (100 μM<EC99)

Follow-up entry: "CCOc1cccc(F)c1CN1CCN(C(=O)[C@H](N)C2CCN(CCc3cc(Cl)ccc3-c3cn(C)nc3C)CC2)CC1"
C (100 μM<EC99)

Follow-up entry: "N[C@@H](C(=O)N1CCN(Cc2c(F)cccc2N2CCCC2)CC1)C1CCN(CCc2cc(Cl)ccc2-c2ccccc2)CC1"
B (25 μM<EC99≤100 μM)

Follow-up entry: "Cc1ccsc1CN1CCN(C(=O)[C@H](N)C2CCN(CCc3cc(Cl)ccc3-c3ccccc3)CC2)CC1"
B (25 μM<EC99≤100 μM)

Follow-up entry: "CCOc1cccc(F)c1CN1CCN(C(=O)[C@H](N)C2CCN(CCc3cc(Cl)ccc3-c3cccc(N)c3F)CC2)CC1"
S (EC99≤12.5 μM)

Follow-up entry: "CSc1ccc(CN2CCN(C(=O)[C@H](N)C3CCN(CCc4cc(Cl)ccc4-c4ccccc4)CC3)CC2)s1"
B (25 μM<EC99≤100 μM)

---

test system: mexB (EC) strain; assay: Efflux ability inhibition effect on drug efflux pump MexB (Test Examples 1 and 3): proliferation (OD595) of mexB (EC) strain with EM or LVFX at 1/4 MIC, EC75; format: cell-based, Escherichia coli; conditions: Table 53, Test Example 3; combined with LVFX at 1/4 MIC; same manner as Test Example 1
quantity: EC75, mexB (EC) strain, LVFX

INSERT INTO assay_data (compound_smiles, quantity, obs_value) VALUES
  ('N[C@@H](C(=O)N1CCN(C[C@@H]2CCCN2)CC1)C1CCN(CCc2cc(Cl)ccc2-c2ccccc2)CC1', 'EC75, mexB (EC) strain, LVFX', 'B (25 μM<EC75≤100 μM)'),
  ('N[C@@H](C(=O)N1CCN(Cc2ncc3ccccn23)CC1)C1CCN(CCc2cc(Cl)ccc2-c2ccccc2)CC1', 'EC75, mexB (EC) strain, LVFX', 'A (12.5 μM<EC75≤25 μM)'),
  ('Cl.N[C@@H](C(=O)N1CCN(Cc2c(O)cccc2Cl)CC1)C1CCN(CCc2cc(Cl)ccc2-c2ccccc2)CC1', 'EC75, mexB (EC) strain, LVFX', 'S (EC75≤12.5 M)'),
  ('Cn1ccnc1CN1CCN(C(=O)[C@H](N)C2CCN(CCc3cc(Cl)ccc3-c3ccccc3)CC2)CC1', 'EC75, mexB (EC) strain, LVFX', 'B (25 μM<EC75≤100 μM)');

Query: EC75, mexB (EC) strain, LVFX; subject: "COc1cncc(F)c1CN1CCN(C(=O)[C@H](N)C2CCN(CCc3cc(Cl)ccc3-c3ccccc3)CC2)CC1"
B (25 μM<EC75≤100 μM)

Follow-up entry: "C=C(Br)c1ccc(Cl)cc1CCN1CCC([C@@H](N)C(=O)N2CCN(Cc3c(F)cccc3OCC)CC2)CC1"
A (12.5 μM<EC75≤25 μM)

Follow-up entry: "CCOc1cccc(F)c1CN1CCN(C(=O)[C@H](N)C2CCN(CCc3cc(Cl)ccc3C#Cc3ccccc3)CC2)CC1"
A (12.5 μM<EC75≤25 μM)

Follow-up entry: "CSc1ccccc1CN1CCN(C(=O)[C@H](N)C2CCN(CCc3cc(Cl)ccc3-c3cccc(O)c3Cl)CC2)CC1.Cl"
S (EC75≤12.5 M)

---

system: S-3769 strain; experiment: Combinational effect with antibacterial agent against Pseudomonas aeruginosa (Test Examples 2 and 4): S-3769 strain with AMK or GM at 1/4 MIC, EC99; type: cell-based; conditions: Table 52, Test Example 2; combined with GM at 1/4 MIC; 16 to 20 hours culture, OD595
quantity: EC99, S-3769 strain, GM

Solved entries (count: 5):
INSERT INTO assay_data (molecule, obs_value) VALUES
  ('CCOc1cccc(F)c1CN1CCN(C(=O)[C@H](N)C2CCN(CCc3ccccc3-c3ccccc3)CC2)CC1 [Example 109]', 'A (12.5 μM<EC99≤25 μM)'),
  ('CCOc1cccc(F)c1CN1CCN(C(=O)[C@H](N)C2CCN(CCc3cc(Cl)ccc3-c3ccccc3Cl)CC2)CC1 [Example 44]', 'S (EC99≤12.5 μM)'),
  ('N[C@@H](C(=O)N1CCN(Cc2cccc3c2OCCO3)CC1)C1CCN(CCc2cc(Cl)ccc2-c2ccccc2)CC1 [Example 37]', 'B (25 μM<EC99≤100 μM)'),
  ('N[C@@H](C(=O)N1CCN(Cc2cccc3c2OCO3)CC1)C1CCN(CCc2cc(Cl)ccc2-c2ccccc2)CC1 [Example 36]', 'B (25 μM<EC99≤100 μM)'),
  ('N[C@@H](C(=O)N1CCN(Cc2c(F)cccc2OCC(F)F)CC1)C1CCN(CCc2cc(Cl)ccc2-c2ccccc2)CC1 [Example 18]', 'A (12.5 μM<EC99≤25 μM)');

Write down the reported EC99, S-3769 strain, GM of CCOc1cccc(F)c1CN1CCN(C(=O)[C@H](N)C2CCN(CCc3c[nH]c4ccccc34)CC2)CC1 [Example 148] , test system: S-3769 strain.
S (EC99≤12.5 μM)

Follow-up entry: CCOc1cccc(F)c1CN1CCN(C(=O)[C@H](N)C2CCN(CCc3cc(Cl)ccc3-c3ccccc3F)CC2)CC1 [Example 139]
S (EC99≤12.5 μM)

---

tested on: S-3769 strain; assay: Combinational effect with antibacterial agent against Pseudomonas aeruginosa (Test Examples 2 and 4): S-3769 strain with AMK or GM at 1/4 MIC, EC99; type: cell-based; conditions: Table 52, Test Example 2; combined with GM at 1/4 MIC; 16 to 20 hours culture, OD595
quantity: EC99, S-3769 strain, GM

INSERT INTO assay_data (compound, obs_value) VALUES
  ('CCOc1cccc(F)c1CN1CCN(C(=O)[C@H](N)C2CCN(CCc3cc(Cl)ccc3-c3cccc(S(F)(F)(F)(F)F)c3)CC2)CC1 [Example 57]', 'B (25 μM<EC99≤100 μM)'),
  ('CCOc1cccc(F)c1CN1CCN(C(=O)[C@H](N)C2CCN(CCc3cc(Cl)ccc3C3CC3)CC2)CC1 [Example 78]', 'S (EC99≤12.5 μM)'),
  ('CCOc1cccc(F)c1CN1CCN(C(=O)[C@H](N)C2CCN(CCc3ccccc3-c3cc(F)cc(F)c3)CC2)CC1 [Example 48]', 'A (12.5 μM<EC99≤25 μM)'),
  ('CCOc1cccc(F)c1CN1CCN(C(=O)[C@H](N)C2CCN(CCc3cc(Cl)ccc3C3=CCCCC3)CC2)CC1 [Example 56]', 'A (12.5 μM<EC99≤25 μM)'),
  ('CCOc1cccc(F)c1CN1CCN(C(=O)[C@H](N)C2CCN(CCc3cc(Cl)ccc3-c3cccc(O)c3)CC2)CC1 [Example 100]', 'S (EC99≤12.5 μM)'),
  ('CCOc1cccc(F)c1CN1CCN(C(=O)[C@H](N)C2CCN(CCC3COc4ccccc4C3)CC2)CC1 (stereo partly drawn) [Example 153]', 'S (EC99≤12.5 μM)'),
  ('CCOc1ccc(O)c(F)c1CN1CCN(C(=O)[C@H](N)C2CCN(CCc3cc(Cl)ccc3-c3ccccc3)CC2)CC1 [Example 104]', 'S (EC99≤12.5 μM)'),
  ('CCSc1cccc(F)c1CN1CCN(C(=O)[C@H](N)C2CCN(CCc3cc(Cl)ccc3-c3ccccc3)CC2)CC1 [Example 27]', 'S (EC99≤12.5 μM)'),
  ('CCOc1cccc(F)c1CN1CCN(C(=O)[C@H](N)C2CCN(CCc3cc(Cl)ccc3-c3cccnc3)CC2)CC1 [Example 73]', 'S (EC99≤12.5 μM)'),
  ('CCOc1cccc(F)c1CN1CCN(C(=O)[C@H](N)C2CCN(CCc3cccc4ccc(OC)cc34)CC2)CC1 [Example 149]', 'S (EC99≤12.5 μM)');

Query: EC99, S-3769 strain, GM; subject: CCOc1cccc(F)c1CN1CCN(C(=O)[C@H](N)C2CCN(CCc3cc(Cl)ccc3-c3cccs3)CC2)CC1 [Example 72]
S (EC99≤12.5 μM)

Follow-up entry: CCOc1cccc(F)c1CN1CCN(C(=O)[C@H](N)C2CCN(CCc3cc(Cl)ccc3-c3cccc(N)c3)CC2)CC1 [Example 99]
S (EC99≤12.5 μM)

Cited source: patent US20250326744A1
